test.details: qHTS for Inhibitors of the Aldehyde Dehydrogenase Family (ALDH1A2, ALDH1A3, ALDH2, ALDH3A1) (AID 2061307); also: nearly all actives have a fitted effect of over 50% in size; as to Potency: test system not described further here; potency is read from the fitted curve at half-maximal effect
condition.parameters: ALDH inhibition qHTS; series mostly up to 50.3 µM
Results filed as inconclusive are left out. Calls of active or inactive are those of the source. Calls follow the shape of the dose curve; as a rule, active = well fitted inhibition curve with a large enough effect; inconclusive = small, poorly fitted or top-dose-only effect; inactive = no such curve, though single readings can be large or run the other way.
observed.property: Potency

Some solved entries appear below for comparison.
| compound | Potency |
| --- | --- |
| COc1ccc(-c2nc3ccccc3c(=O)n2Cc2ccccc2)cc1CNc1ccc(NC(C)=O)cc1 | 12.7 µM (active) |
| CC(C)(Nc1nc(-c2ccccc2C(F)(F)F)nc2ccccc12)c1ccc(-c2cccc(C(F)(F)F)c2)cc1 | inactive |
| CCCCN1C(=O)c2ccccc2NC1c1ccc(OC)c(COc2ccc(NC(C)=O)cc2)c1 (stereo unspecified) | 7.12 µM (active) |
| C/C=C/C=C/C(O)=C1/C(=O)[C@]2(C)C3/C(=C(O)/C=C/C=C/C)C(=O)C4(C)C1[C@]1(C)O[C@@]4(O)[C@@]3(C)O[C@@]12O | inactive |

Asked: Read the entry O=C(N/N=C/c1ccc(Br)o1)c1ccccc1 and write its reported Potency.
Given back: inactive

Asked: Read the entry CC(C)CCN(C)Cc1ccc(-c2ccccc2)cc1 and write its reported Potency.
Given back: 25.1 µM (active)
